Give measured composite z-score for each item. Keep answers brief.
# Assay Text: probe aInhba binding on compound microarray – biochemical, small-molecule microarray, 635/667 nm fluorescence, primary screen (AID 1148);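 also: score merges 667nm spot fluorescence with signal-to-noise for antibody binding to printed compounds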
# Condition Description: higher = more signal
Reply with just the number.

Supply recorded composite z-score for CCCCCCC#C[Si](O[C@H](c1ccccc1)c1cn(Cc2cccc(Cl)c2)nn1)(C(C)C)C(C)C here.
0.0367

Return reported composite z-score. Input compound: COC(=O)[C@@]1(Cc2ccc(OC)cc2)[C@H]2c3cc(C(=O)N4CCCC4)n(Cc4ccc(C)o4)c3C[C@H]2CN1C(=O)c1ccccc1
0.505

Assign composite z-score to the following record: CC(C)(C)OC(=O)CC[C@@]1(C(=O)N2CCCCC2)N=C(c2ccc(OCCCO)cc2)O[C@@H]1c1ccccc1CN=[N+]=[N-]
0.248

Find the measured composite z-score of COCCOC(=O)N1C(=O)[C@@]2(c3cc(C#Cc4ccc(OC)cc4)ccc31)[C@H](C(N)=O)[C@H]1C(=O)O[C@H](c3ccccc3)[C@H](c3ccccc3)N1[C@@H]2c1ccc(OCCO)cc1 and report it.
0.267

Give me measured composite z-score, please, for this compound: COC(=O)[C@@]1(Cc2ccc(OC)cc2)[C@H]2c3cc(C(=O)N4CCCC4)n(CCc4ccc(O)c(OC)c4)c3C[C@H]2CN1C(=O)c1ccccc1
0.12

Provide one value: measured composite z-score of Cc1ccc(-c2cccc(=O)o2)cc1
-0.0523

Return composite z-score for the following compound: C=CC[C@@]1(C(=O)NCC(O)CO)N=C(c2ccc(OCCCO)cc2)O[C@@H]1c1ccccc1 (stereo partly drawn)
0.524

Look up and report measured composite z-score for this entry: CCCC=C(CCC)[C@@H](NC(=O)Cc1ccccc1)c1ccc(C(=O)OC)cc1
0.376
